Kindly state cell viability for each of the entries shown.
Tested on: OCI-AML2;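 further: after 48 h exposure read by CellTiter-Glo luminescence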
TEST_DETAILS: cell viability relative to vehicle control; higher = less cytotoxic
TEST_PARAMETERS: 10 µM; SRSF2 genotype: P95H/wt
Where a name gives a salt, the structure may show the parent alone.

Entry CNCCc1ccccn1 [Betahistine] , system OCI-AML2: what cell viability was measured? 102%

Entry COc1cc(O)c2c(=O)c(O[C@@H]3O[C@H](CO)[C@@H](O)[C@H](O)[C@H]3O)c(-c3ccc(O[C@@H]4O[C@H](CO)[C@@H](O)[C@H](O)[C@H]4O)cc3)oc2c1 [Complanatuside] , system OCI-AML2: what cell viability was measured? 107%

Entry COc1cc(O)cc(O)c1C(=O)C=Cc1ccccc1 [Cardamonin] , system OCI-AML2: what cell viability was measured? 52.6%

Entry Nc1c(CC(=O)O)cccc1C(=O)c1ccccc1 [Amfenac Sodium (monohydrate)] , system OCI-AML2: what cell viability was measured? 88.5%

Entry CC1(C)CCC(C)(C)c2cc(NC(=O)c3ccc(C(=O)O)cc3)ccc21 [Tamibarotene] , system OCI-AML2: what cell viability was measured? 37.4%

Entry COc1cc2c(cc1O)CC[n+]1cc3c(OC)c(OC)ccc3cc1-2 [Jatrorrhizine] , system OCI-AML2: what cell viability was measured? 105%

Entry `O=C(NC1(c2ccccc2)CC1)c1c(CN2CCC(N3CCCCC3)CC2)c(-c2cccc(C(F)(F)F)c2)nc2cc(Br)ccc12` , system OCI-AML2: what cell viability was measured? 1.08%

Entry `CC(C)(C#N)c1ccc(N2C(=O)OCc3cnc4ccc(-c5cnc6ccccc6c5)cc4c32)cc1` , system OCI-AML2: what cell viability was measured? 74.5%

Entry CC(=O)c1ccc(C)cc1O [2'-Hydroxy-4'-methylacetophenone] , system OCI-AML2: what cell viability was measured? 94.5%

Entry COC(=O)N[C@H](C(=O)N1CCC[C@H]1c1ncc(-c2ccc(-c3ccc(-c4cnc([C@@H]5CCCN5C(=O)[C@@H](NC(=O)OC)C(C)C)[nH]4)cc3)cc2)[nH]1)C(C)C [Daclatasvir Digydrochloride] , system OCI-AML2: what cell viability was measured? 78.2%

Entry O=C[C@H](O)[C@@H](O)[C@H](O[C@H]1O[C@H](CO)[C@@H](O[C@H]2O[C@H](CO)[C@@H](O[C@H]3O[C@H](CO)[C@@H](O[C@H]4O[C@H](CO)[C@@H](O)[C@H](O)[C@H]4O)[C@H](O)[C@H]3O)[C@H](O)[C@H]2O)[C@H](O)[C@H]1O)[C@H](O)CO [Maltopentaose] , system OCI-AML2: what cell viability was measured? 109%

Entry `CONC(=O)c1ccccc1Nc1cc(Nc2cc(C)nn2C(C)C)ncc1Cl` , system OCI-AML2: what cell viability was measured? 95.8%

Entry NC12CC3CC(CC(C3)C1)C2 [Amantadine hydrochloride (Symmetrel)] , system OCI-AML2: what cell viability was measured? 111%

Entry `CC(C)n1nc(-c2ccc3oc(N)nc3c2)c2c(N)ncnc21` , system OCI-AML2: what cell viability was measured? 6.33%

Entry `NC(=O)CCCSc1nc(N)nc(-c2c(Cl)cc3c4c(cccc24)COC3)n1` , system OCI-AML2: what cell viability was measured? 16.6%

Entry Cc1c(-c2ccc(O)cc2)n(Cc2ccc(OCCN3CCCCCC3)cc2)c2ccc(O)cc12 [Bazedoxifene HCl] , system OCI-AML2: what cell viability was measured? 0.41%

Entry CC(CCC(=O)NCCS(=O)(=O)O)C1CCC2C3C(O)CC4CC(O)CCC4(C)C3CCC12C (stereo unspecified) [Taurochenodeoxycholic acid] , system OCI-AML2: what cell viability was measured? 109%

Entry CCn1c(=O)c2c(nc(/C=C/c3ccc(OC)c(OC)c3)n2C)n(CC)c1=O [Istradefylline (KW-6002)] , system OCI-AML2: what cell viability was measured? 117%

Entry Fc1ccc(Cn2c(Cl)nc3ccccc32)cc1 [2-Chloro-1-(4-fluorobenzyl)benzimidazole] , system OCI-AML2: what cell viability was measured? 28.5%

Entry CC(C)NCC(O)COc1ccc(CCOCC2CC2)cc1 (stereo unspecified) [Betaxolol hydrochloride (Betoptic)] , system OCI-AML2: what cell viability was measured? 91.2%

Entry COC(=O)C1=CC[C@@]23CC[C@@H]([C@@](C)(/C=C/C=C(\C)C(=O)O)OC2=O)[C@@]3(OC(C)=O)CC1 [Pseudolaric Acid B] , system OCI-AML2: what cell viability was measured? 8.39%

Entry C[n+]1c2n(c(=O)c3ccccc31)CCc1c-2[nH]c2ccccc12 [Dehydroevodiamine] , system OCI-AML2: what cell viability was measured? 97.2%

Entry CC=C1C(=O)C[C@H]2[C@@H]3CCC4=CC(=O)CC[C@]4(C)[C@H]3CC[C@]12C [Guggulsterone E&Z] , system OCI-AML2: what cell viability was measured? 71.8%

Entry CO[C@H]1O[C@@H]2O[C@@]3(C)CC[C@H]4[C@H](C)CC[C@@H]([C@H]1C)[C@@]24OO3 [Artemether] , system OCI-AML2: what cell viability was measured? 86.3%

Entry OCC(CO)N[C@H]1C[C@](O)(CO)[C@@H](O)[C@H](O)[C@H]1O [Voglibose] , system OCI-AML2: what cell viability was measured? 92.3%

Entry CC(=O)c1ccc(O)c(C(=O)O)c1 [5-Acetylsalicylic acid] , system OCI-AML2: what cell viability was measured? 102%

Entry CC1(C)CCC2(C(=O)O)CCC3=C(C(CCl)CC4C3(C)CCC3C4(C)CC(O)C(O)C3(C)C(=O)O)C2C1 (stereo unspecified) [Senegenin] , system OCI-AML2: what cell viability was measured? 105%

Entry Cn1nnc2c(C(N)=O)ncn2c1=O [Temozolomide] , system OCI-AML2: what cell viability was measured? 94.9%

Entry NC(=O)c1cnccn1 [Pyrazinamide (Pyrazinoic acid amide)] , system OCI-AML2: what cell viability was measured? 95.6%

Entry CC(C)=CCc1cc2c(cc1O)oc(=O)c1c3ccc(O)cc3oc21 [Psoralidin] , system OCI-AML2: what cell viability was measured? 98%

Entry `COc1cc(-c2cc(-c3ccc(N4CCNCC4)cc3)cnc2C)cc(OC)c1OC` , system OCI-AML2: what cell viability was measured? 17.7%

Hey, just so you know, these numbers are from the supplement of paper PMC10981050.
